Listed next: entries and their corresponding selectivity ratio.
# assayName: Selectivity index, ratio of IC50 for rat L6 cells to IC50 for erythrocytic stage of Plasmodium falciparum NF54
# Format: toxicity
# condition: read-out: Ratio IC50
outcomeMeasure: selectivity ratio

>>> df
                                    compound  boundsign  measvalue
 0  COc1cc(NC(C)CCCNC(=O)/C=C/c2cc(C(F)(F)F)cc(C(F)(F)F)c2)c2ncccc2c1 (centres undefined)          =         14
 1  COc1cc(NC(C)CCCNC(=O)NNC(=O)NCCNC(c2ccccc2)(c2ccccc2)c2ccccc2)c2ncccc2c1 (centres undefined)          >       83.3
 2  COc1cc(NC(C)CCCNC(=O)NNC(=O)N(C)C(c2ccccc2)c2ccccc2)c2ncccc2c1 (centres undefined)          =          1
 3  COc1cc(NC(C)CCCNC(=O)NCCCC(C)Nc2cc(OC)cc3cccnc23)c2ncccc2c1 (centres undefined)          >       28.1
 4  COc1cc(NC(C)CCCNC(=O)/C=C/c2ccccc2)c2ncccc2c1 (centres undefined)          =        1.2
 5  COc1cc(NC(C)CCCNC(=O)NC(c2ccccc2)c2ccc(Cl)cc2)c2ncccc2c1 (centres undefined)          =       32.6
 6  COc1cc(NC(C)CCCNC(=O)NNC(=O)/C=C/c2cc(OC)c(OC)c(OC)c2)c2ncccc2c1 (centres undefined)          =       30.7
 7  COc1cc(NC(C)CCCNC(=O)/C=C/c2ccc(C(F)(F)F)cc2)c2ncccc2c1 (centres undefined)          =       12.4
 8  COc1cc(NC(C)CCCNC(=O)NNC(=O)/C=C/c2ccccc2)c2ncccc2c1 (centres undefined)          =        0.8
 9  COc1ccc(/C=C/C(=O)NCCCC(C)Nc2cc(OC)cc3cccnc23)cc1 (centres undefined)          >       19.4
10  COc1cc(NC(C)CCCNC(=O)NNC(=O)Nc2ccc(Br)cc2)c2ncccc2c1 (centres undefined)          =        2.2
11  COc1ccc(/C(=N/NC(=O)NNC(=O)NCCCC(C)Nc2cc(OC)cc3cccnc23)c2ccccc2)cc1 (centres undefined)          =        2.9
12  COc1cc(NC(C)CCCNC(=O)NNC(=O)Nc2cccc(C(F)(F)F)c2)c2ncccc2c1 (centres undefined)          =        2.7
13  COc1cc(NC(C)CCCNC(=O)NNC(=O)/C=C/c2ccc3c(c2)OCO3)c2ncccc2c1 (centres undefined)          =        0.8
